Below, each of the molecules is paired with its reported normalised viability value.
test system: HDQ-P1; experiment: normalised viability (% of control), CellTiter-Blue; higher = more viable cells (about 100 = DMSO control); conditions: incubation time: 72 h
Field: numeric (%). Do not append units.

I am curious: what normalised viability value has been reported for N#Cc1ccc(COC[C@H]2O[C@@H](n3c(NCc4ccc(Cl)c(Cl)c4)nc4c(N)ncnc43)[C@H](O)[C@@H]2O)cc1 (3000 nM) ?
89.5

Next:
# lookup: normalised viability of O=P1(N(CCCl)CCCl)NCCCO1 (stereo unspecified) [Cyclophosphamide] (12000 nM)
110

Next: Nc1cc(C(F)(F)F)c(-c2cc(N3CCOCC3)nc(N3CCOCC3)n2)cn1 [BKM-120] (3000 nM)
27.7

Same lookup for S=P(N1CC1)(N1CC1)N1CC1 [Thio-TEPA] (30000 nM) , please.
108

Repeat for the following molecule: CN(C)CCOc1ccc(/C(=C(/CCCl)c2ccccc2)c2ccccc2)cc1 [Toremifene] (3000 nM)
113

What do you get for C=C1C[C@@H]2[C@H](CC[C@]3(C)C(=O)CC[C@@H]23)[C@@]2(C)C=CC(=O)C=C12 [Exemestane] (3000 nM) ?
92.4
